Where do these numbers come from? They come from the NIST ThermoML archive (doi:10.1016/j.jct.2010.05.011).

Conditions: 313.15 K; 101.33 kPa; Liquid; Vibrating tube method
readout name: mass density (kg/m3)

CCOS(=O)(=O)[O-].CCc1cccc[n+]1CC [1,2-diethylpyridinium ethylsulfate]    1210.3
COS(=O)(=O)[O-].Cc1ccc[n+](C)c1 [1,3-dimethylpyridinium methyl sulfate]    1292.42
CCc1cccc[n+]1C.COS(=O)(=O)[O-] [2-ethyl-1-methylpyridinium methyl sulfate]    1274.49
COS(=O)(=O)[O-].C[n+]1ccccc1 [1-methylpyridinium methylsulfate]    1334.71

* * *

Assay: refractive index (Na D-line) (dimensionless)
Conditions: 333.15 K; 101.33 kPa; Liquid; Standard Abbe refractometry
readout name: refractive index

CCOS(=O)(=O)[O-].CCc1cccc[n+]1CC [1,2-diethylpyridinium ethylsulfate]    1.50376
CCc1cccc[n+]1C.COS(=O)(=O)[O-] [2-ethyl-1-methylpyridinium methyl sulfate]    1.50982
COS(=O)(=O)[O-].Cc1ccc[n+](C)c1 [1,3-dimethylpyridinium methyl sulfate]    1.50331
COS(=O)(=O)[O-].C[n+]1ccccc1 [1-methylpyridinium methylsulfate]    1.50361
